# target.entity: Tlp3^LBD K149A (Campylobacter jejuni, UniProt Q0P864, K149A)
# Sequence (Q0P864 41-290 K149A): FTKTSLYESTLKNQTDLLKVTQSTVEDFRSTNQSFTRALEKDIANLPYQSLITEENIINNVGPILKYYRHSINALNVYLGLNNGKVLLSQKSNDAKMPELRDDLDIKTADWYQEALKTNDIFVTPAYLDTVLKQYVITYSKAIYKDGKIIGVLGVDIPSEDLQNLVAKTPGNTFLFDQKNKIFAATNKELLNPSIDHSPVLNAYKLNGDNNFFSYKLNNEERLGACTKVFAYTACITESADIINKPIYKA
# assay.text: biochemical
API: label(entry) gives Yes if the entry's Kd is strictly smaller than 40 µM; on equality or larger values it gives No.

Find out if reported Kd for CC(=O)N[C@H]1[C@H]([C@H](O)[C@H](O)CO)OC(O)(C(=O)O)C[C@@H]1O (stereo partly drawn) is less than 40 µM
Yes

Find out if reported Kd for `c1ncc2nc[nH]c2n1` is less than 40 µM
No

Find out if reported Kd for `NCCCC[C@H](N)C(=O)O` is less than 40 µM
Yes

Find out if reported Kd for `C[C@H](O)[C@@H](O)[C@@H](O)[C@H](O)C=O` is less than 40 µM
No

Find out if reported Kd for `Cc1ncc(C[n+]2csc(CCO)c2C)c(N)n1` is less than 40 µM
No

Find out if reported Kd for N[C@H]1C(O)O[C@H](CO)[C@@H](O)[C@@H]1O (stereo partly drawn) is less than 40 µM
Yes

====

Could you please report measured pKd for the items listed next?
# target.entity: UniProt:Q0PBZ3
# assay.text: biochemical
# Assay type: binding
Just the number, please; pKd means minus log10 of the concentration in mol/L.

pKd in this record for `NCCCC[C@H](N)C(=O)O` : 4.73

pKd in this record for N[C@@H](CC(=O)O)C(=O)O [Aspartate] : 4.02

pKd in this record for `O=C[C@H](O)[C@@H](O)[C@@H](O)[C@H](O)CO` : 4.76

pKd in this record for `CSCC[C@H](N)C(=O)O` : 5.72

====

# target.entity: Tlp2 (Campylobacter jejuni, UniProt Q0PBZ3)
# Sequence (Q0PBZ3 entry or part of it): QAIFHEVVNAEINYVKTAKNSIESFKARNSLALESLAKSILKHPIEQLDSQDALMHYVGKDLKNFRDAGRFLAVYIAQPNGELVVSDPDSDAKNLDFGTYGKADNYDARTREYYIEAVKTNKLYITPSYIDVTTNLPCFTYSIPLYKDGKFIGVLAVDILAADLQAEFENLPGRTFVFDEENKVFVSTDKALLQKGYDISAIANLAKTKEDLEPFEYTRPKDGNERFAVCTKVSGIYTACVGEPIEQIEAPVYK
# assay.text: biochemical
# Type: binding
# experimental.conditions: SPR KD, mean ± SD; NB = no binding; read-out: Tlp2 Affinity
measured.attribute: Kd (µM)
Give a bare numeral; the unit µM is implied.

Kd in this record for CC(=O)N[C@H]1[C@H]([C@H](O)[C@H](O)CO)OC(O)(C(=O)O)C[C@@H]1O (some centres unmarked) : 1.7

Kd in this record for `NC(=O)C[C@H](N)C(=O)O` : 12.8

Kd in this record for OC[C@H]1OC(O)[C@H](O)[C@@H](O)[C@@H]1O (some centres unmarked) : 18.1

Kd in this record for `N[C@@H](CO)C(=O)O` : 6.9

Kd in this record for `N[C@@H](CS)C(=O)O` : 10.8

====

# target.entity: Tlp4 (Campylobacter jejuni)
# assay.text: biochemical
# Type: binding
measured.attribute: Kd

Kd in this record for N[C@@H](CC(=O)O)C(=O)O [Aspartate] : 75.3 µM

Kd in this record for CSCC[C@H](N)C(=O)O [Methionine] : 6 µM

Kd in this record for NCCCC[C@H](N)C(=O)O [Lysine] : 19.7 µM

Kd in this record for O=C[C@H](O)[C@@H](O)[C@@H](O)[C@H](O)CO [Galactose] : 18.3 µM

====

# target.entity: Tlp4 (Campylobacter jejuni, UniProt Q0PBP3)
# Sequence (Q0PBP3 entry or part of it): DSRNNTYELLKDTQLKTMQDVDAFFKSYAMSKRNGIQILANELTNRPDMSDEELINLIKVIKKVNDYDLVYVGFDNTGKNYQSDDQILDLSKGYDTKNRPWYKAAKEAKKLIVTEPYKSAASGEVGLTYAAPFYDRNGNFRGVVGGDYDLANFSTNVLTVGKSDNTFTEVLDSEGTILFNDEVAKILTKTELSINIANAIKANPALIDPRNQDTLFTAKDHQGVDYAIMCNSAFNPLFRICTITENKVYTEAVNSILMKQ
# Format: binding
# experimental.conditions: yes/no binding
# Method: Glycan (>400 monosaccharides or complex glycans) and small molecule arrays containing amino acids and salts were performed as described previously by Day et al. ([67]). […] The array slides were scanned at 488/520 nm and analyzed using InnoScan 1100 with MAPIX software. […] The protein/antibody complex was incubated on ice for 10 mins prior to placing on the Assay protocol array. […] Scanning was performed us ing an Innopsys InnoScan 1100AL and analyzed using Mapix (Innopsys). […]
measured.attribute: binding to Tlp4 on glycan/small molecule array

molecule	target.entity	result
N[C@@H](CS)C(=O)O	Tlp4 (Campylobacter jejuni, UniProt Q0PBP3)	bound
C[C@H](O)[C@@H](O)[C@@H](O)[C@H](O)C=O	Tlp4 (Campylobacter jejuni, UniProt Q0PBP3)	interacted
N[C@@H](CO)C(=O)O	Tlp4 (Campylobacter jejuni, UniProt Q0PBP3)	bound
OC[C@H]1OC(O)[C@H](O)[C@@H](O)[C@@H]1O (stereo partly drawn)	Tlp4 (Campylobacter jejuni, UniProt Q0PBP3)	interacted

binding to Tlp4 on glycan/small molecule array in this record for `c1ncc2nc[nH]c2n1` : bound

binding to Tlp4 on glycan/small molecule array in this record for `NCCCC[C@H](N)C(=O)O` : bound
